- tested_on: T1, hMED25 ACID (389-543) (human, UniProt Q71SY5 389-543)
- T1 sequence (looked up): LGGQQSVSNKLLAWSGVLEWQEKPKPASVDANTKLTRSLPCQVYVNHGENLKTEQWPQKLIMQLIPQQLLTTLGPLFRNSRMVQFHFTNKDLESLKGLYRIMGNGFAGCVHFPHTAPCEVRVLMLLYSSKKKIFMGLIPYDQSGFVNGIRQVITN
- assay_comment: ITC
measurement_name: Kd

Consider hATF3 bZIP (88-149) (domain or fragment, human, UniProt P18847 88-149, looked up) RKKRRRERNKIAAAKCRNKKKEKTECLQKESEKLESVNAELKAQIEELKNEKQHLIYMLNLH . Its measured Kd is 1290 nM
